# target entity: full length N-terminally FLAG-tagged PARP1 (Homo sapiens, UniProt P09874)
# Sequence (P09874 whole entry): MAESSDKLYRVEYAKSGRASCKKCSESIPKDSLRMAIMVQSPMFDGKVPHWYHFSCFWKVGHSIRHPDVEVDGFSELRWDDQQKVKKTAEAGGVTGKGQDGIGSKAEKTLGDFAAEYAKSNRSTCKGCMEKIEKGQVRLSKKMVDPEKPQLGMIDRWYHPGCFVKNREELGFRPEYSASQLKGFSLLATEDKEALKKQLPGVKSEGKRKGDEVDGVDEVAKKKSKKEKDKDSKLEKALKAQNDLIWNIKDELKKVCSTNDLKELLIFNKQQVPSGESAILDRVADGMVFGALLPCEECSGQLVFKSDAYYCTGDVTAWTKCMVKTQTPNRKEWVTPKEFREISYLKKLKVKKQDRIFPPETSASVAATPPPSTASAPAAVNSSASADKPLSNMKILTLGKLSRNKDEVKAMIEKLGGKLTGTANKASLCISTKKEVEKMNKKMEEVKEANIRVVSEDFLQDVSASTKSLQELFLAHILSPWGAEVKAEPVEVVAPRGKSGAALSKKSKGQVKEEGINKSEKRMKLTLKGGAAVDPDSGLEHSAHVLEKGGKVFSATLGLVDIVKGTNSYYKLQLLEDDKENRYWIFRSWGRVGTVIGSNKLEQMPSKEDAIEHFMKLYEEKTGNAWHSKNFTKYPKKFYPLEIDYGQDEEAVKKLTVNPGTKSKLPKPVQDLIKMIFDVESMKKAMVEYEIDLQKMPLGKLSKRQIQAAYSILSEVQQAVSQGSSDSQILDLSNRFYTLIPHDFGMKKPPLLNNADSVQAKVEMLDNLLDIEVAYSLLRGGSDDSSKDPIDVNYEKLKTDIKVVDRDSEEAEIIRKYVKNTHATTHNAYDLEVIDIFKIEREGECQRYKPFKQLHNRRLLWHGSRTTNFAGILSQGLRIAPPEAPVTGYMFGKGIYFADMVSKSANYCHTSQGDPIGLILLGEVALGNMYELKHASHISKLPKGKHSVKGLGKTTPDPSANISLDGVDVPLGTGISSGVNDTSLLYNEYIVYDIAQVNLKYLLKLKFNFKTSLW
# protocol details: PARP1 probe displacement HTRF assay
# assay conditions: read-out: PARP1 HTRF; binned Kd, PARP1 probe displacement HTRF
reported endpoint: Kd

Reference set, count: 4
                                   compound  reported_endpoint     measurement
0  CNC(=O)c1ccc(N2CCC(N3CCOC(c4nc5ccccc5c(=O)[nH]4)C3)CC2)cn1 (single isomer, unassigned) [Compound 58a]                 Kd         < 10 nM
1  CNC(=O)c1ccc(N2CCC(N3CCCC(c4ccc(CC(F)(F)F)c(=O)[nH]4)C3)CC2)cn1 (single isomer, unassigned) [Compound 169a]                 Kd      > 10000 nM
2  CNC(=O)c1ccc(N2CCC(N3CCCC(c4nc5ccccc5c(=O)[nH]4)C3)CC2)cc1 (single isomer, unassigned) [Compound 82a]                 Kd    10 to 100 nM
3  CNC(=O)c1ccc(N2CCC(N3CCC(c4ccc(Cl)c(=O)[nH]4)C3)CC2)cn1 (single isomer, unassigned) [Compound 201a]                 Kd  100 to 1000 nM

Need Kd for each of these compounds.
1. CNC(=O)c1ccc(N2CCC(N3CCC(c4ccc(C(C)C)c(=O)[nH]4)C3)CC2)cn1 (racemic)
2. CNC(=O)c1ccc(N2CCC(N3CCC(O)(c4nc5ccccc5c(=O)[nH]4)C3)CC2)cn1 (single isomer, unassigned) [Compound 140a]
3. CNC(=O)c1ccc(N2CCC(N3CCC4CC4(c4nc5ccccc5c(=O)[nH]4)C3)CC2)cn1 (single isomer, unassigned) [Compound 90a]
4. CNC(=O)c1ccc(N2CCC(N3CCC(c4cc5ccccc5c(=O)[nH]4)C3)CC2)cn1 (single isomer, unassigned) [Compound 91b]
5. CNC(=O)c1ccc(N2CCC(N3CCC(c4cc5c(F)cc(F)cc5c(=O)[nH]4)C3)CC2)cn1 (single isomer, unassigned) [Compound 186a]
6. CNC(=O)c1ccc(N2CCC(N3CCC(c4nc5ncccc5c(=O)[nH]4)C3)CC2)cn1 (single isomer, unassigned) [Compound 60b]

a:
1. < 10 nM
2. 10 to 100 nM
3. 100 to 1000 nM
4. < 10 nM
5. < 10 nM
6. 10 to 100 nM

For every item below, please supply its Kd.
1. CNC(=O)c1ccc(N2CCC(N3CCC(c4ccc(CC(F)(F)F)c(=O)[nH]4)C3)CC2)cn1 (single isomer, unassigned) [Compound 188a]
2. CNC(=O)c1ccc(OCCCN2CCCC(c3nc4ccccc4c(=O)[nH]3)C2)cn1 (single isomer, unassigned)
3. CNC(=O)c1ccc(N2CC(N3CCC(c4nc5ccccc5c(=O)[nH]4)C3)C2)cn1 (single isomer, unassigned) [Compound 61a]
4. CNC(=O)c1ccc(N2CCC(N3CCC(C)(c4nc5ccccc5c(=O)[nH]4)C3)CC2)cn1 (single isomer, unassigned) [Compound 67b]
5. CNC(=O)c1ccc(N2CCC(N3CCC(c4cnc(C)c(=O)[nH]4)C3)CC2)cn1 (racemic)
6. CNC(=O)c1ccc(N2CC(N3CCCC(Cc4nc5ccccc5c(=O)[nH]4)C3)C2)cn1 (single isomer, unassigned) [Compound 51a]
7. CNC(=O)c1ccc(N2CCC(N3CCCC(c4nc5cccc(F)c5c(=O)[nH]4)C3)CC2)cn1 (single isomer, unassigned) [Compound 88a]
8. CCc1ccc(C2CCN(C3CCN(c4cnc(C(=O)NC)cc4C)CC3)C2)[nH]c1=O (single isomer, unassigned) [Compound 217b]

a:
["100 to 1000 nM", "< 10 nM", "10 to 100 nM", "100 to 1000 nM", "10 to 100 nM", "100 to 1000 nM", "100 to 1000 nM", "< 10 nM"]

State the recorded Kd for every item in the following list.
1. CNC(=O)c1ccc(N2CCC(N3CCCC(c4ncc(C(F)(F)F)c(=O)[nH]4)C3)CC2)cn1 (single isomer, unassigned) [Compound 73b]
2. CNC(=O)c1ccc(N2CCC(N3CCCC(c4ncc(CC(F)(F)F)c(=O)[nH]4)C3)CC2)cn1 (single isomer, unassigned) [Compound 212b]
3. CNC(=O)c1ccc(N2CCC(N3CCC(c4nc5onc(C)c5c(=O)[nH]4)C3)CC2)cn1 (single isomer, unassigned) [Compound 149b]
4. CNC(=O)c1ccc(N2CCC(N3CCC(c4ncc(C)c(=O)[nH]4)C3)CC2)cn1 (single isomer, unassigned) [Compound 35b]
5. CNC(=O)c1ccc(N2CCC(N3CCCC(c4nc5ccccc5c(=O)[nH]4)C3)CC2)c(Cl)n1 (single isomer, unassigned) [Compound 94a]
6. CNC(=O)c1ccc(N2CCC(N3CCC(c4nc5sc6c(c5c(=O)[nH]4)CCC6)C3)CC2)cn1 (single isomer, unassigned) [Compound 189b]

a:
1: 10 to 100 nM; 2: > 10000 nM; 3: 1000 to 10000 nM; 4: 10 to 100 nM; 5: 10 to 100 nM; 6: < 10 nM

====

# target entity: N-terminally FLAG-tagged PARP2 (amino acids 1-583) (Homo sapiens, UniProt Q9UGN5)
# Construct: N-terminally FLAG-tagged PARP2 (amino acids 1-583)
# Sequence (Q9UGN5 whole entry, the tested form may be a part): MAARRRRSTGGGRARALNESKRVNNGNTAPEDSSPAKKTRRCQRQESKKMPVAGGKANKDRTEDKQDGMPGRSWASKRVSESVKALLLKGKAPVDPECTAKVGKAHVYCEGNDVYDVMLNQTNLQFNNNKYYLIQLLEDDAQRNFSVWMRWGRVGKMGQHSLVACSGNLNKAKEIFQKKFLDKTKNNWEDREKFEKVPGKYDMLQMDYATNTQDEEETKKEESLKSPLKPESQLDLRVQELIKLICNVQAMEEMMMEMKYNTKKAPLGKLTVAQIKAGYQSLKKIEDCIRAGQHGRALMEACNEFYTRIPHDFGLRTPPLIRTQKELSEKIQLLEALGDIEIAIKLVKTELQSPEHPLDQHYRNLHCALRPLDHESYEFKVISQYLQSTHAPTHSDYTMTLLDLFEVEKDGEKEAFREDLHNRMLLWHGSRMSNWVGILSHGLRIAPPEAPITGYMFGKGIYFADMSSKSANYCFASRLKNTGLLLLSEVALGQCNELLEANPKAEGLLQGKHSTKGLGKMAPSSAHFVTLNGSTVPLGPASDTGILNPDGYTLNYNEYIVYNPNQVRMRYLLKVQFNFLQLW
# protocol details: PARP2 probe displacement HTRF assay
# Format: binding
# assay conditions: binned Kd, PARP2 probe displacement HTRF
# Method: Data analysis was performed identical as for PARP1.
pKd: −log10 of the molar value.
Kindly supply the reported pKd values for the records listed here.

Solved cases (2 shown):
In [3]: df
Out[3]:
                                   compound   measurement
0  CNC(=O)c1ccc(N2CC(N3CCCC(Cc4nc5ccccc5c(=O)[nH]4)C3)C2)cn1 (single isomer, unassigned) [Compound 51b]  5.00 to 6.00
1  CCc1ccc(C2CCN(C3CCN(c4ccc(C(=O)NC)nc4)CC3)C2)[nH]c1=O (single isomer, unassigned) [Compound 72b]  6.00 to 7.00

// moving on: another record for pKd
q: # return recorded pKd for entry CNC(=O)c1ccc(N2CCC(N3CCCC(c4nc5ccccc5c(=O)[nH]4)C3)CC2)c(Cl)n1 (single isomer, unassigned) [Compound 94a]
a: 5.00 to 6.00

====

# target entity: full length N-terminally FLAG-tagged PARP1 (Homo sapiens)
# protocol details: PARP1 probe displacement HTRF assay
# assay conditions: read-out: PARP1 HTRF; binned Kd, probe displacement HTRF
reported endpoint: Kd

Some solved entries appear below for comparison.
>>> print(df.to_string())
                                   molecule  measurement
0  CNC(=O)c1ccc(N2CCC(N3CCC(c4cc5c(c(C(F)(F)F)nn5C)c(=O)[nH]4)C3)CC2)c(F)n1 (single isomer, unassigned) [Compound 407b]      < 10 nM
1  CCc1ccc(C2CCN(C3CCN(c4cnc(C(=O)NC)nc4C)CC3)C2)[nH]c1=O (single isomer, unassigned) [Compound 246b]      < 10 nM
2  CNC(=O)c1ncc(N2CCC(N3CCC(c4cc5cccc(F)c5c(=O)[nH]4)C3)CC2)c(C(F)(F)F)n1 (single isomer, unassigned) [Compound 277a]      < 10 nM
3  CNC(=O)c1ncc(N2CCC(N3CCC(c4cc5cccc(F)c5c(=O)[nH]4)C3)CC2)cn1 (racemic) [Compound 234rac]      < 10 nM
4  N#Cc1ccc(N2CCC(N3CCC(c4cc5cccc(F)c5c(=O)[nH]4)C3)CC2)cc1 (single isomer, unassigned) [Compound 314a]      < 10 nM

Please give Kd for each item listed below.
1. N#Cc1ccc(N2CCC(N3CCC(c4cc5cccc(F)c5c(=O)[nH]4)C3)CC2)c(Cl)c1 (single isomer, unassigned) [Compound 378b]
2. Cc1n[nH]c(-c2ccc(N3CCC(N4CCC(c5nc6ccccc6c(=O)[nH]5)C4)CC3)cn2)n1 (racemic) [Compound 275rac]
3. CNC(=O)c1cc(Cl)c(N2CCC(N3CCC(c4cc5ccc(F)cc5c(=O)[nH]4)C3)CC2)cn1 (single isomer, unassigned) [Compound 236b]

a:
["< 10 nM", "< 10 nM", "< 10 nM"]

Give Kd for each listed item.
1. CNC(=O)c1cc(F)c(N2CCC(N3CCC(c4cc5ccc(F)cc5c(=O)[nH]4)C3)CC2)cn1 (racemic) [Compound 235rac]
2. CNC(=O)c1ccc(N2CCC(N3CCC(c4ccc(CC5CC5)c(=O)[nH]4)C3)CC2)c(F)n1 (single isomer, unassigned) [Compound 313a]
3. CNC(=O)c1ccc(N2CCC(N3CCC(c4[nH]c(=O)c5cc(F)ccc5c4F)C3)CC2)c(F)n1 (racemic) [Compound 403rac]
4. CNC(=O)c1ccc(N2CCC(N3CCC(c4ccc(CCOC)c(=O)[nH]4)C3)CC2)cn1 (single isomer, unassigned) [Compound 240a]

a:
1: < 10 nM; 2: 10 to 100 nM; 3: < 10 nM; 4: 10 to 100 nM

These measurements were taken from patent US20250152585A1.
